System: DU-145 prostate
Test: NCI tumour cell line growth inhibition, 48 h
Assignment: determine reported GI50 for the given compounds.

Query string: For the compound shown here, O=C1c2ccc3c4c(ccc(c24)C(=O)N1CCCCO)C(=O)N(CCCCO)C3=O , give the reported GI50.
Result string: 2200 nM

Query string: For the compound shown here, CCOC(=O)c1c(CN2CCCCC2)nc2ccc(Cl)cc2c1-c1ccccc1 , give the reported GI50.
Result string: 32500 nM

Query string: For the compound shown here, N#Cc1cnn(C(=O)c2nn(-c3ccc(Cl)cc3)cc2O)c1N , give the reported GI50.
Result string: 570 nM

Query string: For the compound shown here, CCCCCCCCCC(=O)Oc1ccc(/C(=C(/C)c2ccccc2)c2ccc(OCCN3CCCC3)cc2)cc1 , give the reported GI50.
Result string: 8000 nM

Query string: For the compound shown here, O=C(CC1(O)C(=O)Nc2ccc(Cl)cc21)c1ccc(C(=O)NCC2CCC3(CC2)OOC2(CCCCC2)OO3)cc1 (stereo not given) , give the reported GI50.
Result string: 2000 nM

----------
Tested on: MOLT-4 leukemia
Assay: NCI tumour cell line growth inhibition, 48 h
Reported Endpoint: TGI

Query string: Find the measured TGI: item CCOc1c2c(cc3c1C(=O)c1c(OC)cccc1C3=O)C=C(OC)CC2 , target or system MOLT-4 leukemia.
Result string: > 25 µM

Query string: Find the measured TGI: item CSc1ccc(-c2cn3ccsc3n2)cc1 , target or system MOLT-4 leukemia.
Result string: > 100 µM

Query string: Find the measured TGI: item O=C(OC[C@H]1C[C@H]2C(=O)OCCC[C@H]2O1)c1ccccc1 , target or system MOLT-4 leukemia.
Result string: > 100 µM

Query string: Find the measured TGI: item N#CCCN(C(=O)Nc1ccc(NC(=O)N(CCC#N)c2ccccc2)cc1)c1ccccc1 , target or system MOLT-4 leukemia.
Result string: > 100 µM

Query string: Find the measured TGI: item COc1cc(F)c(F)c(Nc2ccc(I)cc2F)c1NS(=O)(=O)C1(CC(O)CO)CC1 (stereo not given) , target or system MOLT-4 leukemia.
Result string: 52.3 µM

Query string: Find the measured TGI: item CC1=C(\C=C/C(C)=C/C=C/C(C)=C/C=C/C=C(C)\C=C\C=C(C)/C=C/C2=C(C)CCCC2(C)C)C(C)(C)CCC1 , target or system MOLT-4 leukemia.
Result string: > 100 µM

Query string: Find the measured TGI: item O=C(NCC(O)COc1ccccc1)c1ccccc1O (stereo not given) , target or system MOLT-4 leukemia.
Result string: 47.2 µM

Query string: Find the measured TGI: item N#CC1=C(N)OC2=C(CCCc3ccc([N+](=O)[O-])cc32)C1c1ccc(Cl)cc1 (stereo not given) , target or system MOLT-4 leukemia.
Result string: 93.1 µM

Query string: Find the measured TGI: item COC(=O)c1sc(-n2cnc3cc(OC)c(OC)cc32)cc1OCc1ccccc1C(F)(F)F , target or system MOLT-4 leukemia.
Result string: > 25 µM

Query string: Find the measured TGI: item CCc1ccc([OH2+])c(C(=O)[O-])c1.CCc1ccc([OH2+])c(C(=O)[O-])c1.CCc1ccc([OH2+])c(C(=O)[O-])c1.CCc1ccc([OH2+])c(C(=O)[O-])c1.[Cu+2].[Cu+2] , target or system MOLT-4 leukemia.
Result string: > 100 µM

Query string: Find the measured TGI: item COC(=O)CC(=O)OC1C[C@@H]2CCC3C(C)(C)CCC[C@]3(C)C23CC[C@@]1(C)C3 (stereo not given in full) , target or system MOLT-4 leukemia.
Result string: > 100 µM

Query string: Find the measured TGI: item CC(=O)OC1COC(N2C(=O)C(=O)c3ccccc32)C(OC(C)=O)C1OC(C)=O (stereo not given) , target or system MOLT-4 leukemia.
Result string: > 100 µM

Query string: Find the measured TGI: item N#Cc1c(N)oc2cc3c(C#N)c(N)oc3cc12 , target or system MOLT-4 leukemia.
Result string: > 100 µM

Query string: Find the measured TGI: item O=C1c2c(c3c4ccccc4n(CC4CO4)c3c3[nH]c4ccccc4c23)C(=O)N1Cc1ccccc1 (stereo not given) , target or system MOLT-4 leukemia.
Result string: > 100 µM

Query string: Find the measured TGI: item Nc1ncc(CN2CCCC2)c(-c2ccccc2O)n1 , target or system MOLT-4 leukemia.
Result string: > 750 µM

Query string: Find the measured TGI: item CC[C@@]1(O)C(=O)OCc2c1cc1n(c2=O)Cc2c-1nc1ccc(N)cc1c2CC[Si](C)(C)C , target or system MOLT-4 leukemia.
Result string: < 0.01 µM

Query string: Find the measured TGI: item COc1ccc([C@@H]2[C@@H](Cl)C(=O)N2c2cc(OC)c(OC)c(OC)c2)cc1C , target or system MOLT-4 leukemia.
Result string: > 100 µM

Query string: Find the measured TGI: item CC1OC(O[C@@H]2C=C3CC[C@@H]4[C@H](CC[C@]5(C)[C@@H](c6ccc(=O)oc6)CC[C@]45O)[C@@]3(C)CC2)C(O)C(O)C1O (stereo not given in full) , target or system MOLT-4 leukemia.
Result string: 0.00127 µM

Query string: Find the measured TGI: item COc1cc([C@H]2OC[C@@H]3C(c4cc(OC)c5c(c4)OCO5)OC[C@H]23)cc(OC)c1OC (stereo not given in full) , target or system MOLT-4 leukemia.
Result string: > 100 µM

Query string: Find the measured TGI: item CN(C)CCCn1c(-c2ccc(Br)cc2)csc1=Nc1ccccc1 , target or system MOLT-4 leukemia.
Result string: 59.2 µM

Query string: Find the measured TGI: item COC1=CC(=O)C2(C=C1OC)OC[C@H]1Oc3c(ccc4c3C=CC(C)(C)O4)C(=O)[C@H]12 (stereo not given in full) , target or system MOLT-4 leukemia.
Result string: 85.6 µM

Query string: Find the measured TGI: item CCN(CC)C(=O)Cc1[nH][nH]c(=O)c1C(=O)N(CC)CC , target or system MOLT-4 leukemia.
Result string: > 100 µM

Query string: Find the measured TGI: item CCOC(=O)Nc1cc2c(c(N)n1)N=C(c1ccc(Cl)cc1Cl)CN2 , target or system MOLT-4 leukemia.
Result string: > 100 µM

Query string: Find the measured TGI: item COC(OC)c1cccc2c1C(=O)CCC1(CC2)OCCCCO1 , target or system MOLT-4 leukemia.
Result string: > 100 µM

Query string: Find the measured TGI: item COc1cc2c3c(c4cc(OC)c(OC)cc4c2cc1OC)CN1CCC[C@H]1C3 , target or system MOLT-4 leukemia.
Result string: > 34.9 µM

Query string: Find the measured TGI: item O=C1CCNC/C1=C\c1ccccc1 , target or system MOLT-4 leukemia.
Result string: > 100 µM

Query string: Find the measured TGI: item Cc1ccccc1NC(=O)C(=O)C(C(=O)c1ccccc1F)C1OC(=O)c2ccccc21 (stereo not given) , target or system MOLT-4 leukemia.
Result string: 52.4 µM

Query string: Find the measured TGI: item CCCOC(=O)CCC(NC(=O)c1ccc(Nc2nc3ccccc3nc2-c2cccs2)cc1)C(=O)OCCC (stereo not given) , target or system MOLT-4 leukemia.
Result string: > 100 µM

Query string: Find the measured TGI: item O=C1N[C@@H]([C@H]2CC[C@H](Cl)CN2)C(=O)N[C@H]1[C@H]1CC[C@H](Cl)CN1 , target or system MOLT-4 leukemia.
Result string: 13.3 µM

Query string: Find the measured TGI: item O=C1c2ccc3c4c(ccc(c24)C(=O)N1CCCCO)C(=O)N(CCCCO)C3=O , target or system MOLT-4 leukemia.
Result string: 12.5 µM

Query string: Find the measured TGI: item CCOC(=O)C(Oc1ccc(OC)c2c1C(=O)CCC2)c1ccccc1 (stereo not given) , target or system MOLT-4 leukemia.
Result string: > 100 µM

Query string: Find the measured TGI: item NS(=O)(=O)c1ccc(Nc2c3ccccc3nc3c(C(=O)NC(CO)(CO)CO)cccc23)cc1 , target or system MOLT-4 leukemia.
Result string: 0.195 µM

Query string: Find the measured TGI: item O=C(O)c1ccccc1Sc1ccc(C=C2NC(=S)N(c3ccccc3)C2=O)s1 , target or system MOLT-4 leukemia.
Result string: > 100 µM

Query string: Find the measured TGI: item CC(C)(c1ccc(C=O)o1)c1ccc(C(C)(C)c2ccc(C=O)o2)o1 , target or system MOLT-4 leukemia.
Result string: > 100 µM

Query string: Find the measured TGI: item CN(CCNC(=O)c1nn(C)c2c1Cc1ccccc1-2)CCNC(=O)c1nn(C)c2c1Cc1ccccc1-2 , target or system MOLT-4 leukemia.
Result string: 31.2 µM

Query string: Find the measured TGI: item CCC(C)C(NC(=O)c1cccc2c(=O)c3ccccc3[nH]c12)C(=O)O (stereo not given) , target or system MOLT-4 leukemia.
Result string: > 100 µM

Query string: Find the measured TGI: item O=C(Cn1c(=O)oc2ccccc21)N(c1ccccc1)c1ccccc1 , target or system MOLT-4 leukemia.
Result string: > 100 µM

Query string: Find the measured TGI: item Cc1cc2c3ccccc3n3c2c2c1OC1(C)CCC(C2C1)C3(C)C (stereo not given) , target or system MOLT-4 leukemia.
Result string: > 25 µM

Query string: Find the measured TGI: item CN1N=C(c2ccncc2)OC1c1ccc(C(F)(F)F)cc1 (stereo not given) , target or system MOLT-4 leukemia.
Result string: > 100 µM

Query string: Find the measured TGI: item CSC(SC)=C(C#N)C(=O)Nc1ccc(Cl)cc1 , target or system MOLT-4 leukemia.
Result string: 89.6 µM
